- targetOfAssay: M2 (Homo sapiens, UniProt P08172)
- Sequence (P08172 whole entry): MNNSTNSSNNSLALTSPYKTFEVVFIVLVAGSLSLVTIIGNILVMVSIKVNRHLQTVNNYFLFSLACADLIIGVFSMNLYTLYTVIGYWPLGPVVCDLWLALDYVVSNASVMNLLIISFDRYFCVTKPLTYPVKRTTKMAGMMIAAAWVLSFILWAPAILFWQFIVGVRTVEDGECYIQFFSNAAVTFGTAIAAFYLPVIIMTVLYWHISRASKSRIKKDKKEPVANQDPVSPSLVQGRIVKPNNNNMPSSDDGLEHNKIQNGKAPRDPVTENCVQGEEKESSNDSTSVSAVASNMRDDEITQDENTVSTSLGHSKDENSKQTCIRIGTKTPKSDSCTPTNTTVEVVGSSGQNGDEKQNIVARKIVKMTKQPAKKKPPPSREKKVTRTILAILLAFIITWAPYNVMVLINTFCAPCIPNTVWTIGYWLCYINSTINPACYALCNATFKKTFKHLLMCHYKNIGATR
- methodNotes: In vitro functional assay of muscarinic acetylcholine receptor activity, M2
- Format: cell-based
- assayConditions: antagonist IC50 at M2; read-out: M2 IC50
measuredMetric: IC50

Data request: Specify measured IC50 for O=C(CCS(=O)(=O)c1cccc2ncsc12)N1CC2CCC(C1)N2c1ccc(C(F)(F)F)cn1 [Example 147] .
Data returned: < 100 nM

Data request: Supply IC50 value. Item: C[C@H]1CN(c2cc(F)c(F)c(F)c2)CCN1C(=O)CCS(=O)(=O)c1cccc2ncsc12 [Example 116]
Data returned: 1000 to 10000 nM

Data request: Entry N#Cc1ccc(N2C3CCC2CN(C(=O)CCOCc2cccc4nccnc24)C3)nc1 [Example 37] needs its IC50 filled in; supply it.
Data returned: 1000 to 10000 nM

Data request: Using known records, supply IC50 for CC1CN(C(=O)CCCc2cccc3ncccc23)CCN1c1ccncc1 (centres unmarked) [Example 60]
Data returned: 100 to 1000 nM

Data request: Tell me measured IC50 for O=C(CCNCc1cccc2ncsc12)N1C[C@H]2CC[C@@H](C1)N2c1ccncc1F [Example 8] please.
Data returned: 1000 to 10000 nM

Data request: Output IC50 of N#Cc1ccc(N2C3CCC2CN(C(=O)C2CC(NCc4cccc5ncsc45)C2)C3)nc1 (centres unmarked) [Example 30]
Data returned: 1000 to 10000 nM

Data request: Assign IC50 to the following record: N#Cc1ccc(N2C3CCC2CN(C(=O)CCNCc2cccc4ncsc24)C3)nc1 [Example 29]
Data returned: 1000 to 10000 nM

Data request: Identify the reported IC50 for the following entry. Cc1cc(C#N)ncc1N1CCN(C(=O)CCS(=O)(=O)c2cccc3nccn23)[C@@H](C)C1 [Example 144]
Data returned: > 10000 nM
